Origin of values: the supplement of paper PMC10567573

B1: CCND2 (parent)
chain: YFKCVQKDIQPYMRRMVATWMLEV

Variants of: B1
test-protocol: protein stability index of a GFP-peptide fusion (GPS, HEK-293T) (PSI 1-6); higher = more stable;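 further: lentivirally expressed fusions sorted by FACS into six bins by GFP to DsRed ratio, PSI derived from sequencing read proportions per bin multiplied by bin number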
condition-set: c terminus: a fixed tail appended
Classify by measured protein stability index: satisfied if it is equal to or exceeds 3, not satisfied if it is smaller.

Determine whether measured protein stability index meets or exceeds 3 for YFKCVQKDIQPCMRRMVATWMLEV [Y12C]
not satisfied

Determine whether measured protein stability index meets or exceeds 3 for YFQCVQKDIQPYMRRMVATWMLEV [K3Q]
not satisfied

Determine whether measured protein stability index meets or exceeds 3 for YFKCVQKIIQPYMRRMVATWMLEV [D8I]
not satisfied

Determine whether measured protein stability index meets or exceeds 3 for YFKCVQKDIQPYMCRMVATWMLEV [R14C]
not satisfied

Determine whether measured protein stability index meets or exceeds 3 for YFKCVQKDIQPYMRRMVATDMLEV [W20D]
not satisfied

Determine whether measured protein stability index meets or exceeds 3 for YFKCVQKDIQPYMRRMVAVWMLEV [T19V]
not satisfied

Determine whether measured protein stability index meets or exceeds 3 for YFKCVQKGIQPYMRRMVATWMLEV [D8G]
satisfied

Determine whether measured protein stability index meets or exceeds 3 for PFKCVQKDIQPYMRRMVATWMLEV [Y1P]
not satisfied

Determine whether measured protein stability index meets or exceeds 3 for YFKCVQKDIQPYMRRMVATWILEV [M21I]
not satisfied

Determine whether measured protein stability index meets or exceeds 3 for YFKCVQKDIQPTMRRMVATWMLEV [Y12T]
not satisfied

Determine whether measured protein stability index meets or exceeds 3 for YFKCVQKDIQPYMRRMVAPWMLEV [T19P]
not satisfied

Determine whether measured protein stability index meets or exceeds 3 for YFKCVQKDIQPYMRRMVATWLLEV [M21L]
not satisfied

Determine whether measured protein stability index meets or exceeds 3 for YFKCVQKDIQPYMRRIVATWMLEV [M16I]
satisfied

Determine whether measured protein stability index meets or exceeds 3 for YFKCVQKDIQPYMRRMVATWMGEV [L22G]
not satisfied

Determine whether measured protein stability index meets or exceeds 3 for YFKCVQKWIQPYMRRMVATWMLEV [D8W]
not satisfied

Determine whether measured protein stability index meets or exceeds 3 for YFKCVQKDRQPYMRRMVATWMLEV [I9R]
not satisfied

Determine whether measured protein stability index meets or exceeds 3 for YFPCVQKDIQPYMRRMVATWMLEV [K3P]
not satisfied

Determine whether measured protein stability index meets or exceeds 3 for YFKCVQKDIQPYMRRMVATWKLEV [M21K]
satisfied

Determine whether measured protein stability index meets or exceeds 3 for YFKCVQKDIQPYMRRMVATQMLEV [W20Q]
not satisfied

Determine whether measured protein stability index meets or exceeds 3 for YFKCVLKDIQPYMRRMVATWMLEV [Q6L]
not satisfied

Determine whether measured protein stability index meets or exceeds 3 for YFKCVQKDIQWYMRRMVATWMLEV [P11W]
satisfied

Determine whether measured protein stability index meets or exceeds 3 for YFKCVQKDINPYMRRMVATWMLEV [Q10N]
satisfied

Determine whether measured protein stability index meets or exceeds 3 for YFNCVQKDIQPYMRRMVATWMLEV [K3N]
not satisfied

Determine whether measured protein stability index meets or exceeds 3 for YFKCQQKDIQPYMRRMVATWMLEV [V5Q]
not satisfied

Determine whether measured protein stability index meets or exceeds 3 for YFKCVQKDIQPYMRRMVATWMCEV [L22C]
not satisfied

Determine whether measured protein stability index meets or exceeds 3 for YFKCVQKDIPPYMRRMVATWMLEV [Q10P]
satisfied

Determine whether measured protein stability index meets or exceeds 3 for YFKCVQKDIQPYMERMVATWMLEV [R14E]
not satisfied

Determine whether measured protein stability index meets or exceeds 3 for YFKCVQKDIQPYMRRMLATWMLEV [V17L]
not satisfied

Determine whether measured protein stability index meets or exceeds 3 for YFKCVQKDIQPMMRRMVATWMLEV [Y12M]
satisfied

Determine whether measured protein stability index meets or exceeds 3 for YFKCVQKDIQPYMRPMVATWMLEV [R15P]
satisfied

Determine whether measured protein stability index meets or exceeds 3 for YFKCSQKDIQPYMRRMVATWMLEV [V5S]
not satisfied

Determine whether measured protein stability index meets or exceeds 3 for YFKCVQKCIQPYMRRMVATWMLEV [D8C]
not satisfied

Determine whether measured protein stability index meets or exceeds 3 for YFKCVQKDIQPYMRRMVATWMLEM [V24M]
not satisfied

Determine whether measured protein stability index meets or exceeds 3 for YFKCVQKDIQPYMRRMVATAMLEV [W20A]
not satisfied

Determine whether measured protein stability index meets or exceeds 3 for YFKCVQKDIQPYMRRMVATWMLEI [V24I]
satisfied

Determine whether measured protein stability index meets or exceeds 3 for YFKCVQKDIQPYMRRMVATWMLEE [V24E]
not satisfied

Determine whether measured protein stability index meets or exceeds 3 for YFKCVQKDIQDYMRRMVATWMLEV [P11D]
not satisfied

Determine whether measured protein stability index meets or exceeds 3 for YFKCFQKDIQPYMRRMVATWMLEV [V5F]
not satisfied

Determine whether measured protein stability index meets or exceeds 3 for YFKAVQKDIQPYMRRMVATWMLEV [C4A]
not satisfied

Determine whether measured protein stability index meets or exceeds 3 for YFKCVQKDIQPYMRRMVATWWLEV [M21W]
satisfied

Determine whether measured protein stability index meets or exceeds 3 for YFKCVQKDIMPYMRRMVATWMLEV [Q10M]
not satisfied

Determine whether measured protein stability index meets or exceeds 3 for YFKCVQKDIQPYMRRMTATWMLEV [V17T]
satisfied
